Parameter: growth. Scope: all listed entries.
tested on: SN12C renal; assay: NCI-60 one-dose screen, 48 h (100 = growth as untreated, 0 = no growth, -100 = all killed); details: 10 µM unless noted
This is part of a sample that, as a whole, favours compounds with a hit. Of some 83,000 tested, about 20% had one in any assay.

compound | units of measure | growth
COc1ccc(C2=N[C@@H](Cc3ccccc3)C(=O)Nc3ccsc32)cc1 | % | 54.3
CCCCCCCC[N+](C)(CCCCCCCC)CCCCCCCC | % | -86.5
COC(=O)[C@@H](C)C[C@H](Cc1ccccc1)NC(=O)c1csc([C@@H](C[C@H](C(C)C)N(C)C(=O)[C@@H](NC(=O)[C@H]2CCCCN2C)C(C(F)(F)F)C(F)(F)F)OC(C)=O)n1 | % | 28.3
CNC(=O)Oc1ccc(C(C)(C)C)cc1OC(=O)NC | % | 95.2
CC(=O)/C=C/c1ccc2c(c1)OCO2 | % | 98.1
CC(C)OC(=O)[C@H](C)NP(=O)(Oc1ccccc1)C1CCCN(O)C1=O (stereo not given in full) | % | 99.2
O=C(CC1(O)C(=O)Nc2ccc(Br)cc21)c1ccc(C(=O)NCC2CCC3(CC2)OOC2(CCCCC2)OO3)cc1 (stereo not given) | % | 59.1
C[N+](C)(C)Cc1cc(Cl)ccc1O | % | 106
NC(=O)C(Br)c1ccccc1 (stereo not given) | % | 88.7
C/C(Cc1ccc(Cl)cc1)=C(\c1ccc(OCCN2CCOCC2)cc1)c1ccc(OC(=O)Cc2ccccc2)cc1 | % | 93.8

* * *

System: RXF 393 renal
Test: NCI-60 one-dose screen, 48 h (100 = growth as untreated, 0 = no growth, -100 = all killed)
Settings: 10 µM unless noted
Description: Cells are grown in 96 well plates and exposed to the test compound for 48 hours. Compounds are tested at a single concentration, which is 10^-5 M for most compounds. The reported endpoint is percent growth (GI% or GIPRCNT), where numbers from 0 - 100% represent growth inhibition, and numbers from -100% - 0 represent cell death. For example, a value of 40 represents 60% growth inhibition. A value of 0 means no net growth occurred over the course of the experiment. […]
This is part of a sample that, as a whole, favours compounds with a hit. Of some 83,000 tested, about 20% had one in any assay.
Parameter: growth. Scope: all listed entries.

compound structure | units of measure | growth
CC(=O)O[C@H](C[C@H](C(C)C)N(C)C(=O)[C@@H](NC(=O)[C@H]1CCCCN1C)C(C)C)c1nc(C(=O)N[C@@H](Cc2ccccc2)C[C@H](C)C(=O)O)c(CCOCc2ccccc2)s1 | % | 18.3
Cc1ccc(S(=O)(=O)C(Cl)(Cl)Cl)cc1 | % | 102
COc1cc(NCCCN=C(N)N)c2ncccc2c1 | % | 102
O=C([O][Hg][c]1ccccc1)c1ccccc1 | % | -72.4
COc1cc(/C=C/[N+](=O)[O-])cc(OC)c1 | % | -90

* * *

system: CCRF-CEM leukemia; assay: NCI-60 one-dose screen, 48 h (100 = growth as untreated, 0 = no growth, -100 = all killed); conditions: 10 µM unless noted
Compounds without any hit were thinned out: in the full panel of roughly 83,000, 20% have a hit.
Parameter: growth. Scope: all listed entries.

compound | units of measure | growth
O=C(CCCCCCC(=O)Nc1ccc(N(CCCl)CCCl)cc1)NO | % | 19.4
COc1ccc(Nc2ccnc3cc(Cl)ccc23)cc1CN(CCCl)CCCl | % | -6.67
C[Se]C(=O)c1ccccc1OC(C)=O | % | 63.3
CC1(C)[C@H](O)[C@H](F)C[C@@]2(C)Oc3ccc(C(=O)Nc4ccc5c(c4)NC(=O)C54CCN(CCCCC#N)CC4)cc3C[C@H]12 | % | 13.8
O=C([O][Hg][c]1ccccc1)c1ccccc1 | % | -33.8
CC(=O)O[C@H]1CC[C@H]2[C@@H]3CC=C4c5nc(-c6ccccc6)sc5CC[C@]4(C)[C@H]3CC[C@]12C | % | 28.4
COC(=O)[C@@H](C)C[C@H](Cc1ccc2ccccc2c1)NC(=O)c1csc([C@@H](C[C@H](C(C)C)N(C)C(=O)[C@@H](NC(=O)[C@H]2CCCCN2C)C(C)C)OC(C)=O)n1 | % | 24.2
CC(C)=CC1C(C(=O)OCc2cccc(Oc3ccccc3)c2)C1(C)C (centres undefined) | % | 102
O=C1C=C(N2C3C4CCC(C4)C32)C(=O)C=C1c1ccccc1 (centres undefined) | % | 0.362
